# TEST DETAILS: amyloid nucleation score (Sup35N fusion, yeast selection) (log enrichment); library NNK2; higher = more nucleation; inactive = no reads after selection;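 further: zero at mode of non-aggregating sequences after 7 days selection at 30°C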
Rule: amyloid nucleation score under 0.7 gives NO, otherwise YES.

[[record]]
substance = "VYEVNGLSAGRMMSICNRRN"
assigned_category = "NO"

[[record]]
substance = "LWITVRATPRLDRS"
assigned_category = "YES"

[[record]]
substance = "LRSVKMIRCLNSSLPLNGRG"
assigned_category = "YES"

[[record]]
substance = "HLSCKVIENGLWTSFCFKQE"
assigned_category = "NO"

[[record]]
substance = "VYLDWFYWPDTIHG"
assigned_category = "YES"

[[record]]
substance = "GIIDLHAYLFKVHEWAHPHR"
assigned_category = "YES"

[[record]]
substance = "SNYVSTHRIWFGYSWCKQEK"
assigned_category = "YES"

[[record]]
substance = "GKSYVYIRLGIFSMWASHRR"
assigned_category = "YES"

[[record]]
substance = "WLYCVVTS"
assigned_category = "YES"

[[record]]
substance = "IGCFTLR"
assigned_category = "YES"

[[record]]
substance = "VFARWFYAADGYIARLHVHT"
assigned_category = "NO"

[[record]]
substance = "MFNACDNRKFCVGVCSDLK"
assigned_category = "NO"

[[record]]
substance = "RMVSPSPMAQNKLGYATTLG"
assigned_category = "NO"

[[record]]
substance = "PVFVLNVLLVILDPFLGLSN"
assigned_category = "NO"

[[record]]
substance = "RQARRRRTSRQHEKGV"
assigned_category = "YES"

[[record]]
substance = "LMHFSFSVAGRAGNELLFIG"
assigned_category = "YES"

[[record]]
substance = "MAMVLWLECTS"
assigned_category = "YES"

[[record]]
substance = "TFRLRECWCDADLRVGVMSL"
assigned_category = "YES"

[[record]]
substance = "LCNAKAS"
assigned_category = "NO"

[[record]]
substance = "ALGSRSTDSGSWITNFLSSR"
assigned_category = "NO"

[[record]]
substance = "NHVNNLIHDFRPALEHLRDT"
assigned_category = "NO"

[[record]]
substance = "VRFEELTEY"
assigned_category = "NO"

[[record]]
substance = "HDDRFSCECYSSDSPESQGL"
assigned_category = "NO"

[[record]]
substance = "QFRTIHAHYNFFG"
assigned_category = "YES"

[[record]]
substance = "IYYACL"
assigned_category = "YES"

[[record]]
substance = "YISGQWCLMCRRRGISACVR"
assigned_category = "NO"

[[record]]
substance = "YLVNNNFFVTIVILVWRTGV"
assigned_category = "YES"

[[record]]
substance = "HCLVIFNEIYRL"
assigned_category = "YES"

[[record]]
substance = "WFQLRMVLTGEFEPVLERSR"
assigned_category = "YES"

[[record]]
substance = "LFISVSYSEFVFQIQDALRC"
assigned_category = "YES"

[[record]]
substance = "SVDRVYGSTFIFSRGDR"
assigned_category = "YES"


---

# TEST DETAILS: amyloid nucleation score (Sup35N fusion, yeast selection) (log enrichment); library NNK2; higher = more nucleation; inactive = no reads after selection
MEASUREMENT LABEL: amyloid nucleation score

[[record]]
item_sequence = "RPNSSIVLLYPFKMRPFES"
measurement_label = "amyloid nucleation score"
obs_value = "inactive"

[[record]]
item_sequence = "NIRMVNLLAYVCPEVIREAC"
measurement_label = "amyloid nucleation score"
obs_value = "inactive"

[[record]]
item_sequence = "VGSFGLMKTYGVYCDNLLGR"
measurement_label = "amyloid nucleation score"
obs_value = "inactive"

[[record]]
item_sequence = "LCKVCSMITVGSGSGSVYSQ"
measurement_label = "amyloid nucleation score"
obs_value = "inactive"


---

# TEST DETAILS: amyloid nucleation score (Sup35N fusion, yeast selection) (log enrichment); library NNK2; higher = more nucleation; inactive = no reads after selection
We use -0.02 as the dividing line for amyloid nucleation score: on or above the line is class 1, below is class 0.

[[record]]
item_sequence = "LFVALVGDLFCCWVCGSYGV"
assigned_category = "class 0"

[[record]]
item_sequence = "SILGSSRTCILSSWWNVGTL"
assigned_category = "class 0"

[[record]]
item_sequence = "YQAGWDEVGSLCLRVRNEKL"
assigned_category = "class 1"

[[record]]
item_sequence = "LCGAKRFMRVQAFEQNVYSR"
assigned_category = "class 1"

[[record]]
item_sequence = "WYALARCYCDGPFSGGWFRM"
assigned_category = "class 0"

[[record]]
item_sequence = "KARWLIFDDVFCCCKFGGWW"
assigned_category = "class 1"

[[record]]
item_sequence = "GMRWSFGVLASRSFCVKWCP"
assigned_category = "class 1"

[[record]]
item_sequence = "DTGRFVMLVVGR"
assigned_category = "class 1"

[[record]]
item_sequence = "ESDSWNVVITDM"
assigned_category = "class 0"

[[record]]
item_sequence = "PAPCTFRYLAITCGLTRYTC"
assigned_category = "class 0"

[[record]]
item_sequence = "LRWVKKRTAAQN"
assigned_category = "class 0"


---

# TEST DETAILS: amyloid nucleation score (Sup35N fusion, yeast selection) (log enrichment); library NNK1; higher = more nucleation; inactive = no reads after selection
amyloid nucleation score below -0.3 gives NO; amyloid nucleation score at or above it gives YES.

[[record]]
substance = "QCRITDSFCSGA"
assigned_category = "YES"

[[record]]
substance = "MMWLCAVFPGIRFYGYPGLN"
assigned_category = "NO"

[[record]]
substance = "QDFNNEFFFSCRAAAKTTNA"
assigned_category = "NO"

[[record]]
substance = "ISYVSVS"
assigned_category = "YES"

[[record]]
substance = "LLFSPIFLDSGPHTLWLYMF"
assigned_category = "YES"

[[record]]
substance = "SNLWFL"
assigned_category = "YES"

[[record]]
substance = "IRGLLRFL"
assigned_category = "YES"

[[record]]
substance = "IRIWSSREGFASIVWTCLMG"
assigned_category = "NO"

[[record]]
substance = "IFSLCSVLSSNIEECPS"
assigned_category = "YES"

[[record]]
substance = "NTKSSVSYYFFMGIIFFSEI"
assigned_category = "YES"

[[record]]
substance = "SFFSSVVDF"
assigned_category = "YES"

[[record]]
substance = "FHCTNSMVMLGRHATMLFFY"
assigned_category = "YES"

[[record]]
substance = "NSLLGYLYSYVVFYREHIVI"
assigned_category = "NO"

[[record]]
substance = "YIIWFPFSKLVLMRYHRSWG"
assigned_category = "YES"

[[record]]
substance = "LLLTHNLVNADDSVDSMQHK"
assigned_category = "YES"

[[record]]
substance = "HMSHMLLQIYLWLVFWSSGV"
assigned_category = "YES"

[[record]]
substance = "MIWPDGQRLMRPTLRMYKTS"
assigned_category = "YES"

[[record]]
substance = "DMDGDSLGVFWALATVYQAH"
assigned_category = "NO"

[[record]]
substance = "LTILCWWLYEIRR"
assigned_category = "YES"

[[record]]
substance = "VNKRISGTLHDTYEGDLCL"
assigned_category = "NO"

[[record]]
substance = "AINLRLV"
assigned_category = "YES"

[[record]]
substance = "FVVVHRSASGPEIQFLKGGR"
assigned_category = "NO"

[[record]]
substance = "RLVEQFRGMLLWY"
assigned_category = "NO"

[[record]]
substance = "WSGTDRMCSVMTYS"
assigned_category = "NO"

[[record]]
substance = "WHAHFEFNMLGILCRHFCSL"
assigned_category = "YES"

[[record]]
substance = "GNCPNQIGAYVVKIIRMPAL"
assigned_category = "NO"

[[record]]
substance = "NCFRLLCFRGLVGQRGL"
assigned_category = "YES"

[[record]]
substance = "AFVIFVYNKSIAQIWHFRGY"
assigned_category = "NO"

[[record]]
substance = "SRLATQTRLKMAGSISLFRS"
assigned_category = "YES"

[[record]]
substance = "VMSVSWVCIGCLSEDISWVF"
assigned_category = "YES"

[[record]]
substance = "SVVFLQRFLDR"
assigned_category = "NO"

[[record]]
substance = "VGTDLNETVG"
assigned_category = "NO"

[[record]]
substance = "VCFVFMS"
assigned_category = "YES"

[[record]]
substance = "RYVPVATKSSTGMSYWDIMV"
assigned_category = "YES"

[[record]]
substance = "RSQRGRPWEGGLSTSLGVRR"
assigned_category = "NO"

[[record]]
substance = "CKRWRSILVKSSRSIMGTDV"
assigned_category = "YES"

[[record]]
substance = "AMPYCGK"
assigned_category = "YES"

[[record]]
substance = "WSLWLRRDFSR"
assigned_category = "YES"

[[record]]
substance = "VILLILNYYSHWDVLLK"
assigned_category = "YES"

[[record]]
substance = "TTEYRMLGYSVEHLQDCSDR"
assigned_category = "NO"

[[record]]
substance = "CHLVSSTSAFA"
assigned_category = "YES"

[[record]]
substance = "AGFSTHSSGCVGECVGQRT"
assigned_category = "YES"

[[record]]
substance = "VFLISY"
assigned_category = "YES"

[[record]]
substance = "MECSASYLYVWKIANTLGRM"
assigned_category = "YES"

[[record]]
substance = "LVFVTWLSMHVNTTGVFSLS"
assigned_category = "YES"

[[record]]
substance = "LWSPSQ"
assigned_category = "YES"

[[record]]
substance = "DVISLTHVEKSWLVSLWKRS"
assigned_category = "YES"

[[record]]
substance = "NSFVYQWFGYVSFKLFRCTV"
assigned_category = "YES"

[[record]]
substance = "FLQRIKNHAVSAGWIYSLSK"
assigned_category = "YES"

[[record]]
substance = "NFRNLSYCFQFPMFVARRLK"
assigned_category = "YES"

[[record]]
substance = "FGRSVLDRVKVMHVRVVVSV"
assigned_category = "NO"

[[record]]
substance = "NSFSDAYKIVYLHIYRSGGI"
assigned_category = "NO"

[[record]]
substance = "WETGIRMFVKCRR"
assigned_category = "YES"

[[record]]
substance = "DLSWSGTFSAGHGNMNFTKS"
assigned_category = "YES"

[[record]]
substance = "AKSELHYSRFYFTLGVMKSL"
assigned_category = "YES"

[[record]]
substance = "YFLSHRCTGGLPIS"
assigned_category = "YES"

[[record]]
substance = "VVATKLSV"
assigned_category = "NO"


src = the supplement of paper PMC12042874
